Entry source: PubChem BioAssay AID1745844

# Tested on: rodent lifetime carcinogenesis bioassay, tumor incidence TD50
# experiment.description: carcinogenic potency in animals, long-term in vivo studies, CPDB compilation (AID 1745844)
# reported.conditions: mouse; strain B6C3F1; males; inhaled; site: lung; lesion: alveolar/bronchiolar carcinoma; dosed 105 weeks; study length 105 weeks
property.name: TD50

Need TD50 of [O]=[Mo](=[O])=[O] , thanks.
4.15 mg/kg/day

====

# Test system: rodent lifetime carcinogenesis bioassay, tumor incidence TD50
# experiment.description: carcinogenic potency in animals, long-term in vivo studies, CPDB compilation (AID 1745844)
# reported.conditions: rat; strain Fischer 344; males; in feed; site: palate; lesion: basosquamous tumor, benign; dosed 103 weeks; study length 104 weeks
property.name: TD50

Look up TD50 for this compound: Nc1cc(S(=O)(=O)[O-])cc2cc(S(=O)(=O)[O-])c(N=Nc3ccc(-c4ccc(N=Nc5c(S(=O)(=O)[O-])cc6cc(S(=O)(=O)[O-])cc(N)c6c5O)c(O)c4)cc3O)c(O)c12.[Cu].[Cu].[Na+].[Na+].[Na+].[Na+]
11500 mg/kg/day

====

# System: rodent lifetime carcinogenesis bioassay, tumor incidence TD50
# experiment.description: carcinogenic potency in animals, long-term in vivo studies, CPDB compilation (AID 1745844)
# reported.conditions: mouse; strain ICR/Jcl; males; in feed; site: any site (literature study); lesion: several types; types named in the paper; dosed 102 weeks; study length 104 weeks
Active and inactive are the calls of the source. The rule behind the calls is not given here.
property.name: TD50

Which TD50 is listed for CC(C)COC(=O)c1ccc(O)cc1 ?
6570 mg/kg/day (inactive)

====

# Tested on: rodent lifetime carcinogenesis bioassay, tumor incidence TD50
# experiment.description: carcinogenic potency in animals, long-term in vivo studies, CPDB compilation (AID 1745844)
# reported.conditions: mouse; strain B6C3F1; males; in feed; site: liver; lesion: hepatocellular adenoma; dosed 60 weeks; study length 61 weeks
property.name: TD50

Entry under review: ClC1=C(Cl)C2(Cl)C3C(Cl)C(Cl)CC3C1(Cl)C2(Cl)Cl (stereo unspecified) . Reported TD50?
0.903 mg/kg/day

====

# System: rodent lifetime carcinogenesis bioassay, tumor incidence TD50
# experiment.description: carcinogenic potency in animals, long-term in vivo studies, CPDB compilation (AID 1745844)
# reported.conditions: rat; strain Fischer; females; in feed; site: urinary bladder; lesion: several types; types named in the paper; dosed 75 weeks; study length 75 weeks
property.name: TD50

Please report the recorded TD50 for COc1cc2c(cc1N)oc1ccccc12 .
25.7 mg/kg/day

====

# System: rodent lifetime carcinogenesis bioassay, tumor incidence TD50
# experiment.description: carcinogenic potency in animals, long-term in vivo studies, CPDB compilation (AID 1745844)
# reported.conditions: mouse; strain B6C3F1; males; inhaled; site: heart; lesion: hemangiosarcoma; dosed 26 weeks; study length 104 weeks
property.name: TD50

Identify the measured TD50 of C=CC=C for rodent lifetime carcinogenesis bioassay, tumor incidence TD50.
18.5 mg/kg/day

====

# System: rodent lifetime carcinogenesis bioassay, tumor incidence TD50
# experiment.description: carcinogenic potency in animals, long-term in vivo studies, CPDB compilation (AID 1745844)
# reported.conditions: rat; strain Fischer 344; males; in feed; site: any site (literature study); lesion: several types; types named in the paper; dosed 74 weeks; study length 101 weeks
property.name: TD50 (mg/kg/day)
Numbers only, in mg/kg/day.

Param item = O=[N+]([O-])c1ccc2c3c(cccc13)CC2 ; retrieve measured TD50.
5.58

====

# Test system: rodent lifetime carcinogenesis bioassay, tumor incidence TD50
# experiment.description: carcinogenic potency in animals, long-term in vivo studies, CPDB compilation (AID 1745844)
# reported.conditions: hamster; strain Syrian Golden; females; by gavage; site: lung; lesion: adenoma; dosed 50 weeks; study length 65 weeks
property.name: TD50
Reply with the number, then its unit.

Returns the measured TD50 for the input molecule. Input: O=NC(=O)CCNCCO
31.3 mg/kg/day

====

# Test system: rodent lifetime carcinogenesis bioassay, tumor incidence TD50
# experiment.description: carcinogenic potency in animals, long-term in vivo studies, CPDB compilation (AID 1745844)
# reported.conditions: mouse; strain B6C3F1; females; in feed; site: Harderian gland; lesion: adenoma, NOS + cystadenoma, NOS; dosed 103 weeks; study length 105 weeks
property.name: TD50 (mg/kg/day)
One number for each entry, in mg/kg/day.

Data request, read-out TD50, for N=C1C=CC(=C(c2ccc(N)cc2)c2ccc(N)cc2)C=C1
316

====

# Test system: rodent lifetime carcinogenesis bioassay, tumor incidence TD50
# experiment.description: carcinogenic potency in animals, long-term in vivo studies, CPDB compilation (AID 1745844)
# reported.conditions: rat; strain Fischer 344; males; in feed; site: colon; lesion: one or several types; types not named; dosed 53 weeks; study length 63 weeks
property.name: TD50 (mg/kg/day)
Give bare numbers, in mg/kg/day.

Sample Cn1c(N)nc2c3cccnc3ccc21 — what was its TD50?
10.5

====

# Tested on: rodent lifetime carcinogenesis bioassay, tumor incidence TD50
# experiment.description: carcinogenic potency in animals, long-term in vivo studies, CPDB compilation (AID 1745844)
# reported.conditions: rat; strain Sprague-Dawley Spartan; females; in feed; site: liver; lesion: hepatocellular hyperplastic nodule; dosed 104 weeks; study length 104 weeks
Activity calls are given as the source filed them. No rule for the calls is given here.
property.name: TD50

I am curious: what TD50 value has been reported for OCC(CO)(CBr)CBr ?
2550 mg/kg/day (inactive)

====

# Test system: rodent lifetime carcinogenesis bioassay, tumor incidence TD50
# experiment.description: carcinogenic potency in animals, long-term in vivo studies, CPDB compilation (AID 1745844)
# reported.conditions: rat; strain Fischer 344; males; in drinking water; site: brain; lesion: astrocytoma; dosed 104 weeks; study length 104 weeks
property.name: TD50 (mg/kg/day)
Give bare numbers, in mg/kg/day.

Notebook: pull reported TD50 for rodent lifetime carcinogenesis bioassay, tumor incidence TD50, entry C=CC(N)=O
82.6

====

# Tested on: rodent lifetime carcinogenesis bioassay, tumor incidence TD50
# experiment.description: carcinogenic potency in animals, long-term in vivo studies, CPDB compilation (AID 1745844)
# reported.conditions: mouse; strain C17; females; by gavage; site: uterus; lesion: reticulum-cell neoplasm, type A; dosed 40 weeks; study length 104 weeks
property.name: TD50 (mg/kg/day)
One number for each entry, in mg/kg/day.

Name the recorded TD50 for O=NN1CCN(N=O)CC1 .
4.13

====

# System: rodent lifetime carcinogenesis bioassay, tumor incidence TD50
# experiment.description: carcinogenic potency in animals, long-term in vivo studies, CPDB compilation (AID 1745844)
# reported.conditions: mouse; strain B6C3F1; males; inhaled; site: liver; lesion: hepatocellular carcinoma; dosed 82 weeks; study length 104 weeks
property.name: TD50

Dear colleague, I am looking for the recorded TD50 of the following molecule: C=CC=C
34.4 mg/kg/day

====

# System: rodent lifetime carcinogenesis bioassay, tumor incidence TD50
# experiment.description: carcinogenic potency in animals, long-term in vivo studies, CPDB compilation (AID 1745844)
# reported.conditions: mouse; strain B6C3F1; females; in feed; site: lung; lesion: alveolar/bronchiolar adenoma + alveolar/bronchiolar carcinoma; dosed 79 weeks; study length 94 weeks
property.name: TD50 (mg/kg/day)
Answers are plain numbers, in mg/kg/day.

Report TD50 for Nc1ccc2c(c1)C(=O)c1ccccc1C2=O please.
33400

====

# Tested on: rodent lifetime carcinogenesis bioassay, tumor incidence TD50
# experiment.description: carcinogenic potency in animals, long-term in vivo studies, CPDB compilation (AID 1745844)
# reported.conditions: rat; strain Sprague-Dawley Spartan; females; in drinking water; site: liver; lesion: hepatocellular carcinoma; dosed 104 weeks; study length 104 weeks
Active and inactive are the calls of the source. How the calls were made is not given here.
property.name: TD50

Which TD50 is reported for this molecule? C=C(Cl)Cl
654 mg/kg/day (inactive)

====

# System: rodent lifetime carcinogenesis bioassay, tumor incidence TD50
# experiment.description: carcinogenic potency in animals, long-term in vivo studies, CPDB compilation (AID 1745844)
# reported.conditions: rat; strain Fischer 344; females; in feed; site: liver; lesion: carcinoma; dosed 104 weeks; study length 130 weeks
property.name: TD50 (mg/kg/day)
Give bare numbers, in mg/kg/day.

What measured TD50 is associated with O=NO on rodent lifetime carcinogenesis bioassay, tumor incidence TD50?
470

====

# Tested on: rodent lifetime carcinogenesis bioassay, tumor incidence TD50
# experiment.description: carcinogenic potency in animals, long-term in vivo studies, CPDB compilation (AID 1745844)
# reported.conditions: rat; strain Sprague-Dawley; males; in feed; site: subcutaneous tissue; lesion: spindle-cell sarcoma; dosed 104 weeks; study length 104 weeks
Calls of active or inactive are those of the source. The rule behind the calls is not given here.
property.name: TD50

Value lookup for TD50; key = CC(C)C(C(=O)OC(C#N)c1cccc(Oc2ccccc2)c1)c1ccc(Cl)cc1 (stereo unspecified)
266 mg/kg/day (inactive)

====

# Tested on: rodent lifetime carcinogenesis bioassay, tumor incidence TD50
# experiment.description: carcinogenic potency in animals, long-term in vivo studies, CPDB compilation (AID 1745844)
# reported.conditions: mouse; strain Swiss albino; males; in drinking water; site: liver; lesion: several types; types named in the paper; dosed 65 weeks; study length 72 weeks
property.name: TD50

Which measured TD50 value corresponds to CN(N)C=O ?
16.8 mg/kg/day
